Parameter: pIC50. Scope: all listed entries.
measured target: Ribosomal protein S6 kinase beta-1 (Homo sapiens, UniProt P23443)
Sequence (P23443 whole entry): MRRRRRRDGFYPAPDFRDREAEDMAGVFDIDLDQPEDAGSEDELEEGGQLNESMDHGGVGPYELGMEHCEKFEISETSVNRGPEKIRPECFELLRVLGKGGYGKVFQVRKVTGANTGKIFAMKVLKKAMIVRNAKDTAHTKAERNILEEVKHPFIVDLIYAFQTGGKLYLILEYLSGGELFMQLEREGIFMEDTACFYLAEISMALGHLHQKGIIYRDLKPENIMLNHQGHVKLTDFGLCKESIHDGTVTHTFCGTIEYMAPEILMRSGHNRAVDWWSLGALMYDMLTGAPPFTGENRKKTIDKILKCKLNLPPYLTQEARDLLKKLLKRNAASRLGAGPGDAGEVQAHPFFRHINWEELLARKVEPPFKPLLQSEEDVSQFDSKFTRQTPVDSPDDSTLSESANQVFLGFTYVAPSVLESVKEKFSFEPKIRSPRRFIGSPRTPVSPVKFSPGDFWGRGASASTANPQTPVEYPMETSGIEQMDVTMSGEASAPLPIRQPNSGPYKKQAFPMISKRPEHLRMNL
protocol description: Inhibition of p70S6K after 3 hrs by luciferase based chemiluminescence assay
pIC50: −log10 of the molar value.
measured attribute: pIC50

compound: CCOc1cc(NCCN2CCCC2)c(C)c(N2CCN(c3ncnc4[nH]nc(Br)c34)CC2)c1
measured attribute: pIC50
value measured: 8.70
--
compound: Cc1c(NCCN2CCCC2)cc(COCC(F)(F)F)cc1N1CCN(c2ncnc3[nH]nc(Br)c23)CC1
measured attribute: pIC50
value measured: 8.70
--
compound: Cc1c(NCCN2CCCC2)cc(Cl)cc1N1CCN(c2ncnc3[nH]nc(Br)c23)CC1
measured attribute: pIC50
value measured: 8.70
--
compound: COC(=O)c1cc(NCCN2CCCC2)c(C)c(N2CCN(c3ncnc4[nH]nc(Br)c34)CC2)c1
measured attribute: pIC50
value measured: 8.70
--
compound: CCC(=O)c1cc(NCCN2CCCC2)c(C)c(N2CCN(c3ncnc4[nH]nc(Br)c34)CC2)c1
measured attribute: pIC50
value measured: 9.00
--
compound: Cc1noc(-c2cc(NCCN3CCCC3)c(C)c(N3CCN(c4ncnc5[nH]nc(Br)c45)CC3)c2)n1
measured attribute: pIC50
value measured: 9.00
--
compound: Cc1c(NCCN2CCCC2)cc(C(=O)CCC(F)(F)F)cc1N1CCN(c2ncnc3[nH]nc(Br)c23)CC1 [XL-418]
measured attribute: pIC50
value measured: 8.70
--
compound: CCc1n[nH]c2ncnc(N3CCN(c4cc(Cl)cc(NCCN(C)C)c4C)CC3)c12
measured attribute: pIC50
value measured: 8.70
--
compound: Cc1c(NCCN(C)C)cc(Cl)cc1N1CCN(c2ncnc3[nH]nc(Br)c23)CC1
measured attribute: pIC50
value measured: 8.70
